B1: CPXM2 (parent)
chain: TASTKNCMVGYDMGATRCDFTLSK

Variants of: B1
Test: protein stability index of a GFP-peptide fusion (GPS, HEK-293T) (PSI 1-6); higher = more stable;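 further: lentivirally expressed fusions sorted by FACS into six bins by GFP to DsRed ratio, PSI derived from sequencing read proportions per bin multiplied by bin number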
Conditions: c terminus: a fixed tail appended
Observed property: protein stability index
Could you respond with only the numeric value?

Worked examples, 4 variants total:
Residue sequence | Assay result
TASTKNCMVGYDYGATRCDFTLSK [M13Y] | 2.54
TASTKNCMVGYDGGATRCDFTLSK [M13G] | 2.99
TASTKNCMVGYDMGATRIDFTLSK [C18I] | 2.84
TAQTKNCMVGYDMGATRCDFTLSK [S3Q] | 1.91

Problem: Return protein stability index for the following variant: TASTKNCMVGYDSGATRCDFTLSK [M13S]
Result: 2.81

Problem: Return protein stability index for the following variant: TASTKNCMVGYDMGAQRCDFTLSK [T16Q]
Result: 2.86
